Quick reference: H1.0 immunofluorescence intensity of the listed items.
# Tested on: HCC1569
# Assay remarks: H1.0 immunofluorescence intensity relative to DMSO (% of DMSO); higher = stronger H1.0 induction, active = 140 or more
# Measurement context: concentration: 10 µM; 24 h
Measurement type: H1.0 immunofluorescence intensity

Compound: O=C1NC(=O)c2c1c1c3ccccc3[nH]c1n1cncc21 [Isogranulatimide]
Measurement type: H1.0 immunofluorescence intensity
Test result: 134
--
Compound: Cc1ccccc1N(C)C(=O)c1ccc(S(=O)c2nccs2)c([N+](=O)[O-])c1 (stereo not given)
Measurement type: H1.0 immunofluorescence intensity
Test result: 131
--
Compound: Cc1c[nH]c(C=C2C(=O)Nc3ccccc32)c1CCC(=O)O
Measurement type: H1.0 immunofluorescence intensity
Test result: 103
--
Compound: CC12CC3CC(C)(C1)CC(N)(C3)C2.Cl [Memantine.HCl]
Measurement type: H1.0 immunofluorescence intensity
Test result: 100
--
Compound: CC(=O)OCC(=O)[C@@]1(O)CC[C@H]2[C@@H]3CCC4=CC(=O)CC[C@]4(C)[C@@]3(F)[C@@H](O)C[C@@]21C
Measurement type: H1.0 immunofluorescence intensity
Test result: 104
--
Compound: CC1(C)CCC2=C(O1)c1ccccc1C(=O)C2=O
Measurement type: H1.0 immunofluorescence intensity
Test result: 111
--
Compound: O=C(CCl)c1c[nH]c2ccccc12
Measurement type: H1.0 immunofluorescence intensity
Test result: 150
--
Compound: CCC=CCC=CCC=CCC=CCC=CCCCC(=O)O
Measurement type: H1.0 immunofluorescence intensity
Test result: 96.4
--
Compound: O=C(Nc1ccc(Oc2ccnc3[nH]ccc23)c(F)c1)c1cccn(-c2ccc(F)cc2)c1=O
Measurement type: H1.0 immunofluorescence intensity
Test result: 111
--
Compound: CC1CCC2(C(=O)O)CCC3(C)C(=CCC4C5(C)CCC(O)C(C)(C)C5CCC43C)C2C1C (stereo not given)
Measurement type: H1.0 immunofluorescence intensity
Test result: 93.7
--
Compound: CS(=O)(=O)c1ccc(C(O)C(COC(=O)CN)NC(=O)C(Cl)Cl)cc1 (stereo not given) [Thiamphenicol glycinate]
Measurement type: H1.0 immunofluorescence intensity
Test result: 106
--
Compound: Cc1ccc(S(=O)(=O)NC(=O)NN2CCCCCC2)cc1 [Tolazamide]
Measurement type: H1.0 immunofluorescence intensity
Test result: 102
--
Compound: Cc1c(OCC(F)(F)F)ccnc1CS(=O)c1nc2ccccc2[nH]1 (stereo not given)
Measurement type: H1.0 immunofluorescence intensity
Test result: 104
--
Compound: CSc1cccc(Nc2ncc3cc(-c4c(Cl)cccc4Cl)c(=O)n(C)c3n2)c1
Measurement type: H1.0 immunofluorescence intensity
Test result: 150
--
Compound: CC(C)CCC[C@@H](C)[C@H]1CC[C@H]2[C@@H]3CC(=O)[C@H]4C[C@@H](O)CC[C@]4(C)[C@H]3CC[C@]12C [(3beta,5alpha)-3-hydroxycholestan-6-one]
Measurement type: H1.0 immunofluorescence intensity
Test result: 98.6
--
Compound: Cc1cc(O)c2c(c1)C(=O)c1cc(O)cc(O)c1C2=O
Measurement type: H1.0 immunofluorescence intensity
Test result: 89.8
--
Compound: CC(C)C1NC(=O)C(CCCCN)NC(=O)C(Cc2c[nH]c3ccccc23)NC(=O)C(Cc2ccc(O)cc2)NC(=O)C(C)N(C)C(=O)C(Cc2ccccc2)NC1=O (stereo not given) [Seglitide]
Measurement type: H1.0 immunofluorescence intensity
Test result: 152
--
Compound: CCCn1c(=O)c2[nH]c(-c3ccc(S(=O)(=O)O)cc3)nc2n(CCC)c1=O
Measurement type: H1.0 immunofluorescence intensity
Test result: 92.6
--
Compound: CC12CCC(=O)C=C1C=CC1C2CCC2(C)C1CCC21CCC(=O)O1 (stereo not given)
Measurement type: H1.0 immunofluorescence intensity
Test result: 102
--
Compound: CCCCCC=CCC=CCC=CCC=CCCCC(=O)OC(CO)COC(=O)CCCCCCCCCCCCCCCCC (stereo not given)
Measurement type: H1.0 immunofluorescence intensity
Test result: 98
--
Compound: CCCC(=O)NCCc1c2n(c3ccc(OC)cc13)CCCc1ccccc1-2
Measurement type: H1.0 immunofluorescence intensity
Test result: 100
--
Compound: Oc1cc(O)cc(C=Cc2ccc(O)c(O)c2)c1
Measurement type: H1.0 immunofluorescence intensity
Test result: 114
--
Compound: Nc1cc(-c2ccncc2)c[nH]c1=O
Measurement type: H1.0 immunofluorescence intensity
Test result: 114
--
Compound: O=C1NCCc2[nH]c(-c3ccncc3)cc21
Measurement type: H1.0 immunofluorescence intensity
Test result: 115
--
Compound: O=C(NCCO)c1cc(C(=O)NCCO)cc(C(=O)NCCO)c1
Measurement type: H1.0 immunofluorescence intensity
Test result: 96.8

----------
Quick reference: H1.0 immunofluorescence intensity of the listed items.
# Test system: TDF
# Assay remarks: H1.0 immunofluorescence intensity relative to DMSO (% of DMSO); higher = stronger H1.0 induction, active = 120 or more
# Measurement context: concentration: 10 µM; 24 h

Compound: COC(=O)c1ccc2c(c1)nc(NC(=O)c1ccccc1)n2CCCc1ccccc1
H1.0 immunofluorescence intensity: 94.6
--
Compound: CC1=NC(=NNc2ccc(C(=O)[O-])cc2)C(COP(=O)([O-])[O-])=C(C=O)C1=O.[Na+].[Na+].[Na+]
H1.0 immunofluorescence intensity: 93.5
--
Compound: COc1ccc(-n2c(SCC#N)nc3sc4c(c3c2=O)CCCC4)cc1
H1.0 immunofluorescence intensity: 86.3
--
Compound: CCCCCCCCCCCCCCC(F)C(=O)O (stereo unspecified) [2-Fluoropalmitic acid]
H1.0 immunofluorescence intensity: 99.7
--
Compound: Cn1ccnc1 [1-Methylimidazole]
H1.0 immunofluorescence intensity: 97.4
--
Compound: CN1CCc2cccc3c2C1Cc1ccc(O)c(O)c1-3.Cl (stereo unspecified) [Apomorphine hydrochloride hemihydrate]
H1.0 immunofluorescence intensity: 94.8

----------
# Tested on: TDF
# Assay remarks: cell number relative to DMSO (% of DMSO); higher = more cells (less growth inhibition / toxicity)
# Measurement context: concentration: 10 µM; 24 h

Compound: CC1(C)SC2C(NC(=O)COc3ccccc3)C(=O)N2C1C(=O)[O-] (stereo not drawn)
cell number: 101
--
Compound: COc1ccc2nc(S(=O)Cc3ncc(C)c(OC)c3C)[nH]c2c1 (stereo not drawn)
cell number: 102
--
Compound: OCC1NC(CO)C(O)C1O [(2R,5R)-Bis(hydroxymethyl)-(3R,4R)-dihydroxypyrrolidine]
cell number: 101
--
Compound: CC(=O)O.O=C(NCC1CCCCN1)c1cc(OCC(F)(F)F)ccc1OCC(F)(F)F (stereo not drawn) [Flecainide acetate]
cell number: 101
--
Compound: CN(C)CCCN1c2ccccc2CCc2ccccc21.Cl [Imipramine.HCl]
cell number: 97.4
--
Compound: CCCCCC=CCC(O)C=CC=CC=CC(O)CCCC(=O)O [5(S),12(R)-DIHETE all trans]
cell number: 97
--
Compound: CC(N)(Cc1ccc(O)c(O)c1)C(=O)O [L-alpha-Methyl DOPA]
cell number: 98.5
--
Compound: O=C(NCCNCC(O)COc1ccc(O)cc1)N1CCOCC1.O=C(O)C=CC(=O)O (stereo not drawn) [Xamoterol hemifumarate]
cell number: 98.5
--
Compound: CCCCn1c(=O)c2c(ncn2CC(C)=O)n(CCCC)c1=O
cell number: 112
--
Compound: CCOc1ccc2c(c1)C(C)=CC(C)(C)N2
cell number: 104
--
Compound: CCCN(CCC)CC1CCCCN1CCNC(=O)N1c2ccccc2C(=O)Nc2cccnc21 (stereo not drawn)
cell number: 112
--
Compound: CCOC(=O)C(C)(C)Oc1ccc(Cl)cc1 [Clofibrate]
cell number: 99.8
--
Compound: Cn1cnc2c(NC3CCCC3)ncnc21
cell number: 98.1
--
Compound: O=C(Nc1cccc(Nc2nccc(Nc3cccc(C(F)(F)F)c3)n2)c1)C1CC1
cell number: 35.8
--
Compound: CN(C)CCC=C1c2ccccc2C=Cc2ccccc21.Cl [Cyclobenzaprine hydrochloride]
cell number: 103
--
Compound: CC(=O)Oc1cc(C(C)C)c(OCCN(C)C)cc1C.Cl [Moxisylyte hydrochloride]
cell number: 104
--
Compound: CC(C)=CCCC(C)=CCCC(C)=CCSCC(=O)O
cell number: 101
--
Compound: O=C(c1ccc(F)cc1)C1CCN(CCn2c(=O)[nH]c3ccccc3c2=O)CC1
cell number: 105

----------
# Tested on: TDF
# Assay remarks: H1.0 immunofluorescence intensity relative to DMSO (% of DMSO); higher = stronger H1.0 induction, active = 120 or more
# Measurement context: concentration: 10 µM; 24 h

Compound: COC(=O)C1C(O)CCC2CN3CCc4c([nH]c5ccccc45)C3CC21.Cl (centres undefined) [Yohimbine hydrochloride]
H1.0 immunofluorescence intensity: 93.8
--
Compound: Cl.N=C(N=C(N)N)N1CCOCC1 [Moroxydine.HCl]
H1.0 immunofluorescence intensity: 98.7
--
Compound: CC(C)(C)NCC(O)c1cc(O)cc(O)c1.CC(C)(C)NCC(O)c1cc(O)cc(O)c1.O=S(=O)(O)O (centres undefined) [Terbutaline hemisulfate]
H1.0 immunofluorescence intensity: 92.8
--
Compound: CCCCCC(O)C=CC1C(O)CC(O)C1CC(=O)CCC(=O)O (centres undefined)
H1.0 immunofluorescence intensity: 88.8
--
Compound: Cn1c(=O)c2c(ncn2Cc2ccc(C(C)(C)C)cc2)n(C)c1=O
H1.0 immunofluorescence intensity: 106
--
Compound: Cn1c(=O)c2[nH]cnc2n(C)c1=O [Theophylline]
H1.0 immunofluorescence intensity: 97
--
Compound: CCCC(=O)NCCc1c2n(c3ccc(OC)cc13)Cc1ccccc1-2
H1.0 immunofluorescence intensity: 97.1
--
Compound: CC(C)Cc1ccc(C(C)C(=O)O)cc1 (stereo not drawn) [S(+)-Ibuprofen]
H1.0 immunofluorescence intensity: 96
--
Compound: O=C1NC(=O)C(c2cn(CCCO)c3ncccc23)=C1c1cnccn1
H1.0 immunofluorescence intensity: 88.7
--
Compound: Cl.Cl.O=S(=O)(NCCNCC=Cc1ccc(Br)cc1)c1cccc2cnccc12 [H-89, Dihydrochloride]
H1.0 immunofluorescence intensity: 92.7
--
Compound: CCC(C)C(O)C(C)C(=O)C(C)C=C(C)CC(C)C1OC(=O)C1CC (centres undefined)
H1.0 immunofluorescence intensity: 99.9
--
Compound: CN1CCN(CCCCN2C(=O)CN(/N=C/c3ccc(-c4ccc(Cl)cc4)o3)C2=O)CC1.Cl.Cl
H1.0 immunofluorescence intensity: 92.6
--
Compound: O=C(NOCC1CC1)c1ccc(F)c(F)c1Nc1ccc(I)cc1Cl
H1.0 immunofluorescence intensity: 93.3
--
Compound: CCCn1cnc2c1c(=O)n(CCCCC(C)=O)c(=O)n2C
H1.0 immunofluorescence intensity: 90.3
--
Compound: CCC1OC(=O)C(C)C(OC2CC(C)(OC)C(O)C(C)O2)C(C)C(OC2OC(C)CC(N(C)C)C2O)C(C)(O)CC(C)C(=NOCOCCOC)C(C)C(O)C1(C)O (centres undefined)
H1.0 immunofluorescence intensity: 95.2
--
Compound: Cl.N[C@@H](Cc1cnc[nH]1)C(=O)O [L-Histidine hydrochloride]
H1.0 immunofluorescence intensity: 99
--
Compound: C=C1C(=O)C23C(O)C1CCC2C12COC3(O)C(O)C1C(C)(C)CCC2O (centres undefined) [Oridonin]
H1.0 immunofluorescence intensity: 93
--
Compound: NC(N)=NCc1cccc(I)c1
H1.0 immunofluorescence intensity: 104
--
Compound: Cl.NC(N)=NC(=O)Cc1c(Cl)cccc1Cl [Guanfacine hydrochloride]
H1.0 immunofluorescence intensity: 86.8
--
Compound: COc1cc2nccc(Oc3ccc(NC(=O)Nc4ccc(F)cc4F)c(F)c3)c2cc1OC
H1.0 immunofluorescence intensity: 103
--
Compound: N#CC(=C(N)Sc1ccc(N)cc1)c1ccccc1C(F)(F)F
H1.0 immunofluorescence intensity: 86
--
Compound: COc1cc(CNC(=O)CCCCC=CC(C)C)ccc1O
H1.0 immunofluorescence intensity: 93.8
--
Compound: Cl.N=C(N)c1ccccc1 [Benzamidine hydrochloride]
H1.0 immunofluorescence intensity: 94
--
Compound: CC(C)(C=O)Cc1cc(C(C)(C)C)c(O)c(C(C)(C)C)c1
H1.0 immunofluorescence intensity: 92
--
Compound: O=C(Oc1cc(S(=O)(=O)c2ccccc2)ccc1[N+](=O)[O-])c1ccc(Cl)cc1 [2-nitro-5-(phenylsulfonyl)phenyl 4-chlorobenzoate]
H1.0 immunofluorescence intensity: 96.7
--
Compound: C=C1NC2(C(=O)COC(C)=O)C(CC3C4CCC5=CC(=O)C=CC5(C)C4C(O)CC32C)O1 (centres undefined)
H1.0 immunofluorescence intensity: 86
--
Compound: O=C1NC(=O)c2c1c1c3ccccc3[nH]c1n1cncc21 [Isogranulatimide]
H1.0 immunofluorescence intensity: 90
--
Compound: CS(=O)(=O)O.N=C(N)SCCc1ccc(OCc2ccc([N+](=O)[O-])cc2)cc1
H1.0 immunofluorescence intensity: 125
--
Compound: C=C1CCC(O)CC1=CC=C1CCCC2(C)C1CCC2C(C)CCCC(C)(C)O (centres undefined)
H1.0 immunofluorescence intensity: 99.9
